target: Human Tryptophan 2,3-dioxygenase (TDO) (Homo sapiens); construct: His tag (N); made in house; host or cells: E. coli; assay: Human TDO enzymatic assay (kynurenine level); format: biochemical; details: 1 nM TDO, 350 μM L-Trp; geometric mean; read-out: TDO GMean: IC50 (μM) (Biochemical Assay)
value_kind: IC50

Some entries whose results are on file:
molecule: CC(C)(C1CCN(C(=O)NC2CCNCC2)CC1)C(O)c1cc(Cl)cc2cn[nH]c12 (stereo not shown)
system_tested: Human Tryptophan 2,3-dioxygenase (TDO) (Homo sapiens)
IC50: 0.0001 to 10 µM
--
molecule: CC(C)(C1CCCCC1)C(O)c1cc(Cl)cc2cncn12 (stereo not shown)
system_tested: Human Tryptophan 2,3-dioxygenase (TDO) (Homo sapiens)
IC50: 0.0001 to 10 µM
--
molecule: OC(c1cc(Cl)c(F)c2cn[nH]c12)C12CCC(CC1)CC2 (stereo not shown)
system_tested: Human Tryptophan 2,3-dioxygenase (TDO) (Homo sapiens)
IC50: 0.0001 to 10 µM

# input For CC(C)(C1CCN(C(=O)Nc2cccc(F)c2)CC1)[C@@H](O)c1cc(Cl)cc2cn[nH]c12 , what is its reported IC50?
# output 0.0001 to 10 µM

---

# IC50 per record follows
target: human IDO (IDO1-expressing HEK293 cells) (Homo sapiens); construct: expressed in transfected cells; test: Cell based kynurenine assay, IDO1-expressing HEK293 cell clones; conditions: IDO1-expressing HEK293 cells, 24 hours incubation; geometric mean; read-out: HEK293 IDO1 Kynurenine GMean IC50 (μM) (Cellular Assay)
Sequence (P14902 whole entry): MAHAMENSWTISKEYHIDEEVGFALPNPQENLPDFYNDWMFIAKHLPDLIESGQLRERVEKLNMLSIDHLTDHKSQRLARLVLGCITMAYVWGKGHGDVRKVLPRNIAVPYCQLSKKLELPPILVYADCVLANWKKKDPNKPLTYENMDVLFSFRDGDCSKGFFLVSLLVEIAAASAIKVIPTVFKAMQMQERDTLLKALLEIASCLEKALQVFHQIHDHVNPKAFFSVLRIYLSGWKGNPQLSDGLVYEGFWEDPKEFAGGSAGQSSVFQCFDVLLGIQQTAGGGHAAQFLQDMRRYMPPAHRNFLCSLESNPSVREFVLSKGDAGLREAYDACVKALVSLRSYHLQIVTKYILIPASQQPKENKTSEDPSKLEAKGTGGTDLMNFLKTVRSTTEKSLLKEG

Some entries whose results are on file:
compound: CC1(C)CN(c2cc(Cl)cc3cn[nH]c23)CCN1S(C)(=O)=O
system_tested: human IDO (IDO1-expressing HEK293 cells) (Homo sapiens)
IC50: 0.0001 to 10 µM
//
compound: CCC(=O)N1CCC(C(F)(F)C(O)c2cc(Cl)cc3cn[nH]c23)CC1 (stereo not drawn)
system_tested: human IDO (IDO1-expressing HEK293 cells) (Homo sapiens)
IC50: 0.0001 to 10 µM

# input For CC(F)(F)C1(C(C)(F)F)CC(O)(c2cc(Cl)cc3cn[nH]c23)C1 , what is its reported IC50?
# output 0.0001 to 10 µM

# input For NC(=O)N1CCC2(CC1)CC(O)(c1cc(Cl)cc3cn[nH]c13)C2 , what is its reported IC50?
# output 0.0001 to 10 µM

---

Biological target: Human Tryptophan 2,3-dioxygenase (TDO) (Homo sapiens, UniProt P48775)
Construct: His tag (N); made in house; host or cells: E. coli
Sequence (P48775 whole entry): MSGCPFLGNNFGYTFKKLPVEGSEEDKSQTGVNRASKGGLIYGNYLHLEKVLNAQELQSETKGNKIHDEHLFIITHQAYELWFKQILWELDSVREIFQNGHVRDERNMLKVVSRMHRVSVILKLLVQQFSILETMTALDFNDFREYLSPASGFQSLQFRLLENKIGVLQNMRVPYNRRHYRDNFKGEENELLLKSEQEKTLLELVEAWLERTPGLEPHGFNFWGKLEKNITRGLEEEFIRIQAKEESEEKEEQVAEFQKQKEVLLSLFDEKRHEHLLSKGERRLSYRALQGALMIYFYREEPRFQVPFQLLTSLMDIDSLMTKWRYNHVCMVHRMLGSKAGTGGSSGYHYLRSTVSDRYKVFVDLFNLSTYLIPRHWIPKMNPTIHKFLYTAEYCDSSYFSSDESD
Test: Human TDO enzymatic assay (kynurenine level)
Assay type: biochemical
Conditions: 1 nM TDO, 350 μM L-Trp; geometric mean; read-out: TDO GMean: IC50 (μM) (Biochemical Assay)
Method: Human Indoleamine 2,3-dioxygenase (IDO) and Tryptophan 2,3-dioxygenase (TDO) enzymatic assay Human IDO or TDO with N-terminal His tag is purified in E. coli. […] Upon measuring the kynurenine level, the percentage inhibition is calculated at individual concentrations relative to high and low controls. The data is analyzed by using nonlinear regression to generate IC50 values.
# IC50 per record follows

compound: CNC(=O)N1CCC(C(F)(F)C(O)c2cc(Cl)cc3[nH]ncc23)CC1 (stereo not shown)
IC50: 0.0001 to 10 µM
--
compound: COc1cccc(CC(=O)N2CCC(C(F)(F)C(O)c3cc(Cl)cc4cn[nH]c34)CC2)c1 (stereo not shown)
IC50: 0.0001 to 10 µM
--
compound: CCNC(=O)N1CCC(C(C)(C)[C@@H](O)c2cc(Cl)cc3cn[nH]c23)CC1
IC50: 0.0001 to 10 µM

# input For CS(=O)(=O)N1CC(C(O)c2cc(Cl)cc3cn[nH]c23)C1 (stereo not shown) , what is its reported IC50?
# output 0.0001 to 10 µM
